conditions: pooled dog urine (n=10), without enzyme treatment, normalized to creatinine, mean
We begin with a simple list: items and their reported Urinary concentration, Unconjugated.

{"compound": "Oc1ccc([C@H]2COc3cc(O)ccc3C2)cc1", "Urinary concentration, Unconjugated, pmoles / mg creatinine": 0}
{"compound": "O=c1c(-c2ccc(O)cc2)coc2cc(O)cc(O)c12", "Urinary concentration, Unconjugated, pmoles / mg creatinine": 31}
{"compound": "O=C1c2c(O)cc(O)cc2OCC1c1ccc(O)cc1 (stereo not shown) [Dihydrogenistein, dihydrogenistein]", "Urinary concentration, Unconjugated, pmoles / mg creatinine": 0}
{"compound": "COc1cc2c(=O)c(-c3ccc(O)cc3)coc2cc1O", "Urinary concentration, Unconjugated, pmoles / mg creatinine": 9}
